Assay: in vivo
Conditions: mouse, in vivo, ip
measurement_label: LD50 at 168 h
Provide a numeric answer, followed by its unit.

Input: Quick check: LD50 at 168 h of CCc1cc(C=Cc2ccccc2OCC(O)CNC2CC2)on1 (stereo not shown) [Example 5] ?
Output: 95 mg/kg

----------
Tested on: blood pressure in the carotid artery
Experiment: animal or person
Conditions: Rattus norvegicus, iv, read-out: Blood pressure-lowering action ED 20%
ED20 values for the compounds below.

Worked set:
[[record]]
compound = "CCc1cc(C=Cc2ccccc2OCC(O)CNC2CC2)on1 (centres unmarked)"
experimental_result = "0.83 mg/kg"

[[record]]
compound = "Cc1cc(C=Cc2ccccc2OCC(O)CNC(C)C)on1 (centres unmarked)"
experimental_result = "0.65 mg/kg"

[[record]]
compound = "CCc1cc(C=Cc2ccccc2OCC(O)CNC(C)(C)C)on1 (centres unmarked)"
experimental_result = "0.93 mg/kg"


Input: Query the reported ED20 for blood pressure in the carotid artery; item: Cc1cc(C=Cc2ccccc2OCC(O)CNC(C)(C)C)on1 (centres unmarked)
Output: 0.4 mg/kg

Input: Query the reported ED20 for blood pressure in the carotid artery; item: C#CC(C)(C)NCC(O)COc1ccccc1C=Cc1cc(C)no1 (centres unmarked)
Output: 1 mg/kg
